Here the recorded Mean (compound concentration) is given for each entry.
# Assay remarks: Plasma stability, mouse plasma
# Setup conditions: mouse plasma, 37° C., timepoint 6 h
Bridge positions count the residues as written; N and C are the ends. Peptide text beside a SMILES is read from it.
# respond with the number and nothing more

Ask | If you can, please state the reported Mean (compound concentration) value of CC(=O)N[C@@H](CO)C(=O)N[C@@H](CCCNC(=N)N)C(=O)N[C@@H](CC(C)C)C(=O)N[C@@H](CCC(=O)O)C(=O)N[C@H]1CC(=O)NCCCC[C@@H](C(=O)N[C@@H](CCCNC(=N)N)C(=O)N[C@@H](CC(C)C)C(=O)N[C@H](C(=O)N[C@@H](CCC(=O)O)C(N)=O)[C@@H](C)O)NC(=O)[C@H](CCCNC(=N)N)NC(=O)[C@H](CC(C)C)NC(=O)[C@H](CCC(=O)O)NC1=O [SD15196] (Ac-SRLEDELRKRLTE-NH2; lactam 5-9) .
Reply | 1.95

Ask | Name the recorded Mean (compound concentration) for CC(=O)N[C@@H](CO)C(=O)N[C@@H](CCCNC(=N)N)C(=O)N[C@@H](CC(C)C)C(=O)N[C@@H](CCC(=O)O)C(=O)N[C@@H](CCC(=O)O)C(=O)N[C@@H](CCC(=O)O)C(=O)N[C@@H](CC(C)C)C(=O)N[C@@H](CCCNC(=N)N)C(=O)N[C@H]1CCCCNC(=O)CC[C@@H](C(N)=O)NC(=O)[C@H]([C@@H](C)O)NC(=O)[C@H](CC(C)C)NC(=O)[C@H](CCCNC(=N)N)NC1=O [SD15193] (Ac-SRLEEELRKRLTE-NH2; lactam 9-13) .
Reply | 2.39

Continue with the next compound.
Ask | Using the record for CC(=O)N1CCC[C@H]1C(=O)N[C@@H](CO)C(=O)N[C@@H](CCCNC(=N)N)C(=O)N[C@@H](CC(C)C)C(=O)N[C@@H](CCC(=O)O)C(=O)N[C@H]1CCCCNC(=O)CC[C@@H](C(=O)N[C@@H](CCCNC(=N)N)C(=O)N[C@@H](CC(C)C)C(=O)N[C@H](C(=O)N[C@@H](CCC(=O)O)C(N)=O)[C@@H](C)O)NC(=O)[C@H](CCCNC(=N)N)NC(=O)[C@H](CC(C)C)NC(=O)[C@H](CCC(=O)O)NC1=O [SD15805] (Ac-PSRLEKELRERLTE-NH2; lactam 6-10) , report its Mean (compound concentration).
Reply | 1.450
